- System: LG0567-F671-PDC complex spheroids viability
- assay_notes: Anticancer human tumor LG0567-F671-PDC patient-derived lung adenocarcinoma cell line growth inhibition [RAS]
- test_conditions: second compound 1 µM; first compound 1 µM; stronger effect = lower value
endpoint: viability, T/C (%)
Form entry: value (%) — number only.

Reference set (2 entries):
>>> reported_result("O=C(c1ccc(F)c(F)c1Nc1ccc(I)cc1F)N1CC(O)([C@@H]2CCCCN2)C1 + C=CC(=O)N1CCN(c2nc(OCC3CCCN3C)nc3c(F)c(-c4nc(N)cc(C)c4C(F)(F)F)c(Cl)cc23)C(C)C1")
1.77
>>> reported_result("Cc1nc(N2CCC3(CC2)COC(C)C3N)c(CO)nc1Sc1ccnc(N)c1Cl (stereo not given) + C#Cc1c(F)ccc2cc(O)cc(-c3ncc4c(N5CC6CCC(C5)N6)nc(OCC56CCCN5CC(F)C6)nc4c3F)c12")
10.3

(Q) // query viability, T/C value for entry C[C@@H](NC(=O)c1ncnc(N)c1Cl)c1ncc(C(=O)Nc2cc(C(F)(F)F)c(Cl)cn2)s1 + C#Cc1c(F)ccc2cc(O)cc(-c3ncc4c(N5CC6CCC(C5)N6)nc(OCC56CCCN5CC(F)C6)nc4c3F)c12
(A) 42.5

(Q) Now this one: Nc1ccn(C2OC(CO)C(O)C2(F)F)c(=O)n1 (stereo not given) + C#Cc1c(F)ccc2cc(O)cc(-c3ncc4c(N5CC6CCC(C5)N6)nc(OCC56CCCN5CC(F)C6)nc4c3F)c12
(A) 27.5

(Q) Now this one: CC(=O)OC12COC1CC(O)C1(C)C(=O)C(O)C3=C(C)C(OC(=O)C(O)C(NC(=O)OC(C)(C)C)c4ccccc4)CC(O)(C(OC(=O)c4ccccc4)C21)C3(C)C (stereo not given) + C#Cc1c(F)ccc2cc(O)cc(-c3ncc4c(N5CC6CCC(C5)N6)nc(OCC56CCCN5CC(F)C6)nc4c3F)c12
(A) 37

----------
- Tested on: LG0567-F671-PDC complex spheroids viability
- assay_notes: Anticancer human tumor LG0567-F671-PDC cell line growth inhibition [RAS];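 further: spheroids exposed to compound for seven days before readout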
- test_conditions: second compound 0.03 µM; first compound 3.16 µM; stronger effect = lower value
Measured viability, T/C, listed per entry for reference.

>>> reported_result("Cc1nc(N2CCC3(CC2)COC(C)C3N)c(CO)nc1Sc1ccnc(N)c1Cl (configuration not stated) + CCn1c(-c2cccnc2C(C)OC)c2c3cc(ccc31)N1CCOC(CC(NC(=O)C(C(C)C)N(C)C(=O)C3(F)CCN(C(=O)C#CC(C)(C)N(C)C)CC3)C(=O)N3CCCC(N3)C(=O)OCC(C)(C)C2)C1")
"2.76%"

Now look at this one.
(Q) // query viability, T/C value for entry NC1c2ccccc2OC12CCN(c1cnc3c(N4CCCc5ncccc54)n[nH]c3n1)CC2 (configuration not stated) + CCn1c(-c2cccnc2C(C)OC)c2c3cc(ccc31)N1CCOC(CC(NC(=O)C(C(C)C)N(C)C(=O)C3(F)CCN(C(=O)C#CC(C)(C)N(C)C)CC3)C(=O)N3CCCC(N3)C(=O)OCC(C)(C)C2)C1
(A) 1.88%

----------
Measured viability, T/C, listed per entry for reference.
- System: LG0567-F671-PDC complex spheroids viability
- assay_notes: Anticancer human tumor LG0567-F671-PDC cell line growth inhibition [RAS];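 further: spheroids exposed to compound for seven days before readout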
- test_conditions: compound 10 µM; stronger effect = lower value

>>> reported_result("CCC(CC)c1cc(NC2CCC(N)C2)n2nccc2n1 (centres undefined)")
"0.67% [middle of 4 runs]"
>>> reported_result("NC1c2ccccc2OC12CCN(c1cnc3c(N4CCCc5ncccc54)n[nH]c3n1)CC2 (centres undefined)")
"20.4% [middle of 4 runs]"
>>> reported_result("CC1(O)CCCC1n1c(=O)c(C(F)F)cc2cnc(NC3CCN(S(C)(=O)=O)CC3)nc21 (centres undefined)")
"47% [middle of 4 runs]"

(Q) // query viability, T/C value for entry CC(C)NCC(C(=O)N1CCN(c2ncnc3c2C(C)CC3O)CC1)c1ccc(Cl)cc1 (centres undefined)
(A) 63.5% [middle of 4 runs]

(Q) Now this one: Cc1nc(N2CCC3(CC2)COC(C)C3N)c(CO)nc1Sc1ccnc(N)c1Cl (centres undefined)
(A) 19.9% [middle of 4 runs]

(Q) Now this one: CC(Nc1ccc2c(c1)OCCn1cc(N3C(=O)OCC3C(F)F)nc1-2)C(N)=O (centres undefined)
(A) 30.5% [middle of 4 runs]

(Q) Now this one: C[C@@H](NC(=O)c1ncnc(N)c1Cl)c1ncc(C(=O)Nc2cc(C(F)(F)F)c(Cl)cn2)s1
(A) 79% [middle of 4 runs]

(Q) Now this one: C#Cc1c(F)ccc2cc(O)cc(-c3ncc4c(N5CC6CCC(C5)N6)nc(OCC56CCCN5CC(F)C6)nc4c3F)c12 (centres undefined)
(A) 12.4% [middle of 8 runs]

(Q) Now this one: CC(=O)OC12COC1CC(O)C1(C)C(=O)C(O)C3=C(C)C(OC(=O)C(O)C(NC(=O)OC(C)(C)C)c4ccccc4)CC(O)(C(OC(=O)c4ccccc4)C21)C3(C)C (centres undefined)
(A) 63.5% [middle of 4 runs]
